# Test system: P. aeruginosa CIP107051
# assay.procedure: MIC of compounds alone, broth microdilution
# Type: cell-based
# experimental.conditions: Pseudomonas aeruginosa; strain CIP107051 (TEM-24); read-out: MIC compounds of the invention alone
Reported MIC values follow for various molecules

| molecule | study.system | reported.measurement |
| --- | --- | --- |
| NC(=O)CON=C1C[C@@H](C(N)=O)N2C[C@@H]1N(OS(=O)(=O)[O-])C2=O.[Na+] (mixture of isomers) | P. aeruginosa CIP107051 | > 32 µg/mL |
| CNC(=O)CON=C1C[C@@H](C(=O)OC)N2C[C@@H]1N(OS(=O)(=O)[O-])C2=O.[Na+] (mixture of isomers) | P. aeruginosa CIP107051 | > 32 µg/mL |

// switching to the query molecule
// MIC value for CNC(=O)CON=C1C[C@@H](C(N)=O)N2C[C@@H]1N(OS(=O)(=O)[O-])C2=O.[Na+] (mixture of isomers) : > 32 µg/mL

---

Recorded measurements of MIC, one per entry
# Tested on: P. aeruginosa CIP105250
# assay.procedure: microbe, parasite or virus in culture
# Assay type: cell-based
# experimental.conditions: Pseudomonas aeruginosa, CIP105250, read-out: MIC compounds of the invention alone

Example cases with answers are listed next.
| molecule | study.system | readout.type | reported.measurement |
| --- | --- | --- | --- |
| NC(=O)CON=C1C[C@@H](C(N)=O)N2C[C@@H]1N(OS(=O)(=O)[O-])C2=O.[Na+] (mixture of isomers) | P. aeruginosa CIP105250 | MIC | > 32 µg/mL |
| CNC(=O)CON=C1C[C@@H](C(=O)OC)N2C[C@@H]1N(OS(=O)(=O)[O-])C2=O.[Na+] (mixture of isomers) | P. aeruginosa CIP105250 | MIC | > 32 µg/mL |

# next molecule below
CNC(=O)CON=C1C[C@@H](C(N)=O)N2C[C@@H]1N(OS(=O)(=O)[O-])C2=O.[Na+] (mixture of isomers) has a reported MIC of > 32 µg/mL
